Entries and their measured melting point follow.

Previously resolved entries follow.
>>> experimental_result("COC(=S)c1nc(-c2ccccc2)c(N)nc1N")
"210 °C"
>>> experimental_result("CCCCC1(CCn2ccnc2)SCCS1")
"105 to 108 °C"
>>> experimental_result("Cc1ccc(S(=O)(=O)CS(C)(=O)=O)cc1")
"164 to 165 °C"
>>> experimental_result("N#Cc1c(Cl)ccc(Cl)c1Cl")
"117 to 119 °C"
>>> experimental_result("O=c1ccoc(C(O)c2cccc(F)c2)c1OCc1ccccc1 (stereo unspecified)")
"95 to 96 °C"

# next molecule below
Reported melting point, molecule CC1(OCCN(Cc2ccccc2)C(=O)C(F)(F)F)C=CC=C([N+](=O)[O-])C1NC(=O)C(F)(F)F (stereo unspecified) : ____
90 to 92.5 °C

###

REPORTED PROPERTY: melting point

>>> experimental_result("COc1cc(Nc2nccc(-c3ccc(N4CC(C)NC(C)C4)nc3)n2)cc(OC)c1OC (configuration not stated)")
"110 to 111 °C"
>>> experimental_result("CC(C)(C)N1CC(O)C1")
"42 to 43 °C"
>>> experimental_result("Clc1nc(-c2ccncc2)cs1")
"124 to 125 °C"
>>> experimental_result("CN(C)N1CSC(=Cc2cc(C(C)(C)C)c(O)c(C(C)(C)C)c2)C1=O")
"138 to 141 °C"
>>> experimental_result("CCCCc1nc2c(N)nc3cccnc3c2n1CCCCN1CC=Cc2cc(C(N)=O)ccc21")
"190 to 191 °C"

Reported melting point, molecule `O=[N+]([O-])c1cc(C(F)(F)F)cc2nc(C(F)(F)F)[nH]c12` : ____
95 to 97 °C

Would you mind doing `CCC(C)(C)CNc1c(N=O)c(C)nn1C` as well?
45 to 50 °C

Would you mind doing O=C(Nc1c[nH]nc1C(=O)NCC(O)Cc1ccccc1)c1ccccn1 (configuration not stated) as well?
180 to 181 °C

Would you mind doing `CC(=O)OC1c2ccccc2Oc2ccccc21` as well?
109 to 112 °C

Would you mind doing `CCC(=O)N=c1sc2cccc(C)c2n1N` as well?
175 to 176 °C

Would you mind doing CCCCCCCCCCCCCCCCCCC1CNc2cc(C(=O)O)ccc21 (racemic) as well?
112 to 114 °C

Would you mind doing `Nc1nc(F)cc(F)n1` as well?
193 to 196 °C

Would you mind doing `CN1CNC(=S)N(c2ccc(Cl)cc2)C1` as well?
178 to 179 °C

Would you mind doing `Cn1nc(-c2cc(S)c(Cl)cc2F)c(Cl)c1C(F)(F)F` as well?
56 to 58 °C

Would you mind doing `CCC(=O)c1[nH]c2cc(Cl)ccc2c1NC(C)=O` as well?
> 270 °C

Would you mind doing `COC(=O)COc1ccc2cc(CNC(=O)c3cnn(-c4ccc(Cl)cc4)c3C(F)(F)F)ccc2c1` as well?
174 to 176 °C

###

Entries and their measured melting point follow.

Previously resolved entries follow.
>>> experimental_result("CCC(=O)c1ccc(SCCCBr)cc1")
"40 to 41 °C"
>>> experimental_result("O=C(NC/C=C/c1ccccc1)c1cccs1")
"110 °C"

Reported melting point, molecule `O=C(Nc1ccccc1)C1=C(N2CCOCC2)COC1=O` : ____
205 to 206 °C

Would you mind doing CCOP(=O)(OCC)C(OS(=O)(=O)c1ccc(C)cc1)c1cccc([N+](=O)[O-])c1 (stereo unspecified) as well?
90 to 92 °C
